Some molecules, each annotated with its measured pKi.
biological target: α2C adrenergic receptor (Homo sapiens, UniProt P18825); construct: Eurofins Cerep (contract screening); assay: Radioligand binding assay (Eurofins Cerep), [3H]RX 821002 displacement; settings: Table B1; mean ± SEM, 3 independent experiments; read-out: Alpha2C Ki ± SEM
Sequence (P18825 whole entry): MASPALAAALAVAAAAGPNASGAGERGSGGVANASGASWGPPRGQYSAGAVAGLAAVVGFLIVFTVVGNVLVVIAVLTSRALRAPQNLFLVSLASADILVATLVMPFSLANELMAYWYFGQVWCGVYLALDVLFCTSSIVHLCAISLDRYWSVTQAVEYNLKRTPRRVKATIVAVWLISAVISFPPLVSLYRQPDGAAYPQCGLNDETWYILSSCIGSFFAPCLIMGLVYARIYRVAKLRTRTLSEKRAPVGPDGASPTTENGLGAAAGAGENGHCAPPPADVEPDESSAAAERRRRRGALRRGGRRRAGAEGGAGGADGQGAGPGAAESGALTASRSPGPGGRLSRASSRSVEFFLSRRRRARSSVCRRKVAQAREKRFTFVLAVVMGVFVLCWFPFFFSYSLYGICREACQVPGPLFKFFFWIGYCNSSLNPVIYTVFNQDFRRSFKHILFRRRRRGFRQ
pKi: −log10 of the molar value.
REPORTED_METRIC: pKi

molecule="COC(=O)C=C1CCN2CCC(O)(c3ccccc3OC)CC2C1 (stereo not shown) [SG-01-005]" measurement_target="α2C adrenergic receptor (Homo sapiens, UniProt P18825)" reported_metric=pKi bound_operator== endpoint_value=6.89
molecule="COC(=O)C=C1CCN2CCC(O)(c3ccccc3OC)CC2C1 (single isomer, unassigned) [SG-01-005A]" measurement_target="α2C adrenergic receptor (Homo sapiens, UniProt P18825)" reported_metric=pKi bound_operator== endpoint_value=6.31
molecule=C#CCCN1CCC(O)(c2ccccc2OC)CC1 measurement_target="α2C adrenergic receptor (Homo sapiens, UniProt P18825)" reported_metric=pKi bound_operator=< endpoint_value=5.00
molecule="COC(=O)CC1CCN2CCC(O)(c3ccccc3OC)CC2C1 (stereo not shown)" measurement_target="α2C adrenergic receptor (Homo sapiens, UniProt P18825)" reported_metric=pKi bound_operator== endpoint_value=6.86

// provenance: patent US20260234147A1
